# System: MCF10A
# ASSAY OVERVIEW: 5+ nucleoli phenotype percent effect (relative to siNT 0% and siKIF11 100%); higher = more cells with five or more nucleoli
# RUN PARAMETERS: 20 nM; 72 h
5+ nucleoli phenotype percent effect for assorted sequences

BIOSEQUENCE: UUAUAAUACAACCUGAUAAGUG [hsa-miR-374a-5p]
UNIT TEXT: %
5+ nucleoli phenotype percent effect: 26.1
//
BIOSEQUENCE: AUGGUUCCGUCAAGCACCAUGG [hsa-miR-218-1-3p]
UNIT TEXT: %
5+ nucleoli phenotype percent effect: 4.75
//
BIOSEQUENCE: UAAGGUGCAUCUAGUGCAGAUAG [hsa-miR-18a-5p]
UNIT TEXT: %
5+ nucleoli phenotype percent effect: -34.5
//
BIOSEQUENCE: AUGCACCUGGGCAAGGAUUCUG [hsa-miR-500a-3p]
UNIT TEXT: %
5+ nucleoli phenotype percent effect: -12.9
//
BIOSEQUENCE: UGAGGGCUCCAGGUGACGGUGG [hsa-miR-4721]
UNIT TEXT: %
5+ nucleoli phenotype percent effect: -20.6
//
BIOSEQUENCE: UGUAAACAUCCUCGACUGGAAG [hsa-miR-30a-5p]
UNIT TEXT: %
5+ nucleoli phenotype percent effect: 9.35
//
BIOSEQUENCE: AUUGGGAACAUUUUGCAUGUAU [hsa-miR-450a-1-3p]
UNIT TEXT: %
5+ nucleoli phenotype percent effect: 24.1
//
BIOSEQUENCE: CAAAGCGCUUCUCUUUAGAGUGU [hsa-miR-518c-3p]
UNIT TEXT: %
5+ nucleoli phenotype percent effect: -26.1
//
BIOSEQUENCE: CCUGCAACUUUGCCUGAUCAGA [hsa-miR-4772-3p]
UNIT TEXT: %
5+ nucleoli phenotype percent effect: 16.6
//
BIOSEQUENCE: ACUGCCCCAGGUGCUGCUGG [hsa-miR-324-3p]
UNIT TEXT: %
5+ nucleoli phenotype percent effect: 37.7
//
BIOSEQUENCE: UCUACAGUGCACGUGUCUCCAGU [hsa-miR-139-5p]
UNIT TEXT: %
5+ nucleoli phenotype percent effect: -2.1
//
BIOSEQUENCE: GGUUCUUAGCAUAGGAGGUCU [hsa-miR-2116-5p]
UNIT TEXT: %
5+ nucleoli phenotype percent effect: -5.52
//
BIOSEQUENCE: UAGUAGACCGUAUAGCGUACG [hsa-miR-411-5p]
UNIT TEXT: %
5+ nucleoli phenotype percent effect: 15.2
//
BIOSEQUENCE: ACAACAGUGACUUGCUCUCCAA [hsa-miR-4709-5p]
UNIT TEXT: %
5+ nucleoli phenotype percent effect: -18.3
//
BIOSEQUENCE: AUAAUACAACCUGCUAAGUGCU [hsa-miR-374c-5p]
UNIT TEXT: %
5+ nucleoli phenotype percent effect: -36.9
//
BIOSEQUENCE: GAGCCCCUCUCUGCUCUCCAG [hsa-miR-6769a-3p]
UNIT TEXT: %
5+ nucleoli phenotype percent effect: 9.99
//
BIOSEQUENCE: CACUGUAGGUGAUGGUGAGAGUGGGCA [hsa-miR-1183]
UNIT TEXT: %
5+ nucleoli phenotype percent effect: 17.5
//
BIOSEQUENCE: AAAGGUAAUUGCAGUUUUUCCC [hsa-miR-570-5p]
UNIT TEXT: %
5+ nucleoli phenotype percent effect: 56.8
//
BIOSEQUENCE: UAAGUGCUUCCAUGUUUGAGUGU [hsa-miR-302d-3p]
UNIT TEXT: %
5+ nucleoli phenotype percent effect: 63.5
//
BIOSEQUENCE: AAAAGUGCUUACAGUGCAGGUAG [hsa-miR-106a-5p]
UNIT TEXT: %
5+ nucleoli phenotype percent effect: 22.1
//
BIOSEQUENCE: UGGGGGAGAUGGGGGUUGA [hsa-miR-6870-5p]
UNIT TEXT: %
5+ nucleoli phenotype percent effect: -6.86
